protocol_summary: self-splicing fitness, log relative to wild type (ln ratio); higher = more splicing; Tetrahymena group I intron in knt gene, E. coli kanamycin selection, DiMSum; sequences stand for … in CUCUCU…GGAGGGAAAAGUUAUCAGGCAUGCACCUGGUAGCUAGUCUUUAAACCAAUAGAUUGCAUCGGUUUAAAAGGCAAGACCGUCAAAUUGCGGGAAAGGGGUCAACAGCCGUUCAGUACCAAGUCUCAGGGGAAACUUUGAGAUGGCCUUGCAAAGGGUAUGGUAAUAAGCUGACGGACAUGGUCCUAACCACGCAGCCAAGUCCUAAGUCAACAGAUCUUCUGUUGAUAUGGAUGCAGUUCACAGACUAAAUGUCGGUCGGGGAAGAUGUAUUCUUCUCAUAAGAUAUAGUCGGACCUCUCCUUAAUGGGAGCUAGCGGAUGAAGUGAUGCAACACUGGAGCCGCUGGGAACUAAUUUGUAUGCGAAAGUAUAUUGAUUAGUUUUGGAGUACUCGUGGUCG;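 note: selection with 25 µg/mL kanamycin versus none on LB agar overnight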
assay_context: 30 °C
Quick reference for self-splicing fitness (ln) among some sequences

>  <residue_sequence>
AUGCAGCAAUAUUACGAGGC

>  <self-splicing fitness (ln)>
-1.94

$$$$
>  <residue_sequence>
GUGGAGCAAUAUUACGGAAU

>  <self-splicing fitness (ln)>
-3.23

$$$$
>  <residue_sequence>
GUACAGCAAUAUUACGGACC

>  <self-splicing fitness (ln)>
-2.76

$$$$
>  <residue_sequence>
ACAGAGCAAUAUUACGGCUG

>  <self-splicing fitness (ln)>
-0.984

$$$$
>  <residue_sequence>
CAUUAGCAAUAUUACGUGCA

>  <self-splicing fitness (ln)>
-2.31

$$$$
>  <residue_sequence>
UAUAAGCAAUAUUACGACUG

>  <self-splicing fitness (ln)>
0.143

$$$$
>  <residue_sequence>
UACUAGCAAUAUUACGCGUG

>  <self-splicing fitness (ln)>
-1.21

$$$$
>  <residue_sequence>
UCACAGCAAUAUUACGAUUU

>  <self-splicing fitness (ln)>
-4.01

$$$$
